For each entry below, report its pIC50 value.
Target: human-KAT6A (MYST domain 507-778 aa) (Homo sapiens)
pIC50: −log10 of the molar value.

Batch request: pIC50 for each of the following molecules.
1. COc1cccc(OC)c1S(=O)(=O)Nc1noc2nc(N3CCC(F)(F)C3)cc(OC)c12
2. COc1ccccc1-c1cc(OC)c2c(NS(=O)(=O)c3c(OC)cccc3OC)noc2n1
3. COc1cccc(OC)c1S(=O)(=O)Nc1noc2cc(-c3ccccc3)nc(OC)c12
4. COc1cccc(OC)c1S(=O)(=O)Nc1noc2nc(N3CCCC3)cc(OC)c12
5. COc1cccc(OC)c1S(=O)(=O)Nc1noc2nc(-c3ccsc3)cc(OC)c12
6. COc1cccc(OC)c1S(=O)(=O)Nc1noc2nc(N3CCC(OC)C3)cc(OC)c12 (centres unmarked)
7. COc1cc(C(C)(C)C)ccc1S(=O)(=O)Nc1noc2nc(-c3ccccc3)cc(OC)c12

Resp:
["> 7.00", "> 7.00", "6.70 to 6.96", "6.70 to 6.96", "> 7.00", "6.70 to 6.96", "< 6.70"]

Req: In one line, give reported pIC50 of the entry COc1ccccc1S(=O)(=O)Nc1noc2nc(-c3ccccc3)cc(OC)c12 .
Resp: 6.70 to 6.96

###

Target: human-KAT6A (MYST domain 507-778 aa) (Homo sapiens)
pIC50: −log10 of the molar value.
I'd appreciate it if you could supply pIC50 values for the items below.

Here's what some known entries look like.
COc1cc(-c2ccccc2)nc2onc(NS(=O)(=O)c3ccccc3-c3ccccc3)c12 | > 7.00
COc1cccc(OC)c1S(=O)(=O)Nc1noc2nc(N3CC(F)(F)C3)cc(OC)c12 | < 6.70
CCOc1ccccc1S(=O)(=O)Nc1noc2nc(-c3ccccc3)cc(OC)c12 | < 6.70

// below: pIC50 requested for another compound
Req: Supply recorded pIC50 for COc1cccc(OC)c1S(=O)(=O)Nc1noc2nc(N3CCC3)cc(OC)c12 here.
Resp: 6.70 to 6.96

###

Target: human-KAT6A (MYST domain 507-778 aa) (Homo sapiens, UniProt Q92794)
Construct: human-KAT6A (MYST domain 507-778 aa)
Sequence (Q92794 507-778): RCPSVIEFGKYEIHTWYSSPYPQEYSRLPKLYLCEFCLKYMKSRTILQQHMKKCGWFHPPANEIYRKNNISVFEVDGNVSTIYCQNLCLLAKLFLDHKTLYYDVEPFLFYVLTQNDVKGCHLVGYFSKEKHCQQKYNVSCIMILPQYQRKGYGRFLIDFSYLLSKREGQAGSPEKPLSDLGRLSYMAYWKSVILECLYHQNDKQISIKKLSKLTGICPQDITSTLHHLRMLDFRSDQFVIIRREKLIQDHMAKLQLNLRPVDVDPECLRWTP
Assay: KAT6A biochemical assay (TR-FRET)
Settings: compound at 1 μM, percent inhibition of internal assay controls
Record 1 (yes) whenever inhibition at 1 µM is at 60% or higher; record 0 (no) when lower.

COc1ccc(CN(C)c2cc(OC)c3c(NS(=O)(=O)c4c(OC)cccc4OC)noc3n2)cc1 | 0 (no)
COc1cccc(OC)c1S(=O)(=O)Nc1noc2nc(N(C)C3CCCCC3)cc(OC)c12 | 0 (no)
COc1cccc(OC)c1S(=O)(=O)Nc1noc2nc(-c3ccccc3)cc(OC)c12 | 1 (yes)
COc1cccc(OC)c1S(=O)(=O)N(C)c1noc2nc(-c3ccccc3)cc(OC)c12 | 0 (no)
CNc1cc(OC)c2c(NS(=O)(=O)c3c(OC)cccc3OC)noc2n1 | 0 (no)

Continue with the compound presented below.
Req: Confirm if inhibition at 1 µM reported for the compound COc1cccc(OC)c1S(=O)(=O)Nc1noc2ncncc12 is 60% or above.
Resp: 0 (no)

###

Biological target: human-KAT6A (MYST domain 507-778 aa) (Homo sapiens)
Construct: human-KAT6A (MYST domain 507-778 aa)
Assay: KAT6A biochemical assay (TR-FRET)
Conditions: compound at 1 μM, percent inhibition of internal assay controls
Classify by measured inhibition at 1 µM: rule met if it is equal to or exceeds 30%, rule not met if it is smaller.

Use the examples below as a reference point.
COc1cccc(OC)c1S(=O)(=O)Nc1noc2ncccc12 [Compound 24] | rule not met
COc1cccc(OC)c1S(=O)(=O)Nc1noc2nc(N3CCC(OC)C3)cc(OC)c12 (stereo not shown) [Compound 19] | rule met
COc1cccc(OC)c1S(=O)(=O)Nc1noc2nc(N3CCC(F)(F)C3)cc(OC)c12 [Compound 18] | rule met
COc1cccc(OC)c1S(=O)(=O)Nc1noc2nc(N3CCOCC3)cc(OC)c12 [Compound 14] | rule met
COc1cccc(OC)c1S(=O)(=O)Nc1noc2nc(N3CC(F)(F)C3)cc(OC)c12 [Compound 28] | rule met

Req: // inclusive: inhibition at 1 µM at least 30%? input: COc1cccc(OC)c1S(=O)(=O)Nc1noc2cc(-c3ccccc3)n(C)c(=O)c12 [Compound 4]
Resp: rule not met

Req: Threshold query (inhibition at 1 µM >= 30%) on COc1cc(-c2ccccc2)nc2onc(NS(=O)(=O)c3ccccc3F)c12 [Compound 26]
Resp: rule not met

Req: inhibition at 1 µM >= 30% for CCN(Cc1ccc(OC)cc1)c1cc(OC)c2c(NS(=O)(=O)c3c(OC)cccc3OC)noc2n1 [Compound 30] ?
Resp: rule met

Req: Record COc1cccc(OC)c1S(=O)(=O)Nc1noc2cc(-c3ccccc3)ncc12 [Compound 11] ; criterion: inhibition at 1 µM no lower than 30%. Met?
Resp: rule not met

Req: Could you tell me if the measured inhibition at 1 µM of COc1cccc(OC)c1S(=O)(=O)Nc1noc2cc(-c3ccccc3)nc(OC)c12 [Compound 3] reaches 30% or more?
Resp: rule met

Req: Can COc1cccc(OC)c1S(=O)(=O)Nc1noc2nc(N(C)C)cc(OC)c12 [Compound 15] be said to have inhibition at 1 µM at or above 30%?
Resp: rule met

Req: Does the reported inhibition at 1 µM for COc1cc(-c2ccccc2)nc2onc(NS(=O)(=O)c3ccccc3-c3ccccc3)c12 [Compound 5] fall at or above the 30% mark?
Resp: rule met

Req: Form field: inhibition at 1 µM at least 30%? Entry: CCOc1ccccc1S(=O)(=O)Nc1noc2nc(-c3ccccc3)cc(OC)c12 [Compound 9]
Resp: rule met

Req: Given the entry COc1cccc(OC)c1S(=O)(=O)Nc1noc2nc(N3CCCC3)cc(OC)c12 [Compound 13] , answer whether its inhibition at 1 µM meets or surpasses 30%.
Resp: rule met

Req: For this molecule, is measured inhibition at 1 µM 30% or higher? COc1cccc(OC)c1S(=O)(=O)Nc1noc2nc(N3CCC3)cc(OC)c12 [Compound 16]
Resp: rule met

Req: Form field: inhibition at 1 µM at least 30%? Entry: COc1cccc(OC)c1S(=O)(=O)Nc1noc2nc(N3CCCCC3)cc(OC)c12 [Compound 12]
Resp: rule met

Req: Would you say COc1cccc(OC)c1S(=O)(=O)Nc1noc2cnccc12 [Compound 21] shows inhibition at 1 µM at minimum 30%?
Resp: rule not met

Req: inhibition at 1 µM >= 30% for COc1cccc(OC)c1S(=O)(=O)Nc1noc2nc(-c3ccccc3)nc(OC)c12 [Compound 2] ?
Resp: rule met

Req: Quick check, inhibition at 1 µM >= 30%? COc1cc(-c2ccccc2)nc2onc(NS(=O)(=O)c3ccccc3OC(F)(F)F)c12 [Compound 7]
Resp: rule not met

Req: Could you please find out whether COc1cccc(OC)c1S(=O)(=O)Nc1noc2nccnc12 [Compound 22] has inhibition at 1 µM that meets 30% or exceeds it?
Resp: rule not met

Req: Say whether CCNc1cc(OC)c2c(NS(=O)(=O)c3c(OC)cccc3OC)noc2n1 [Compound 38] shows inhibition at 1 µM of 30% or more.
Resp: rule met

Req: Can COc1ccccc1S(=O)(=O)Nc1noc2nc(-c3ccccc3)cc(OC)c12 [Compound 8] be said to have inhibition at 1 µM at or above 30%?
Resp: rule met

Req: Check this molecule for inhibition at 1 µM at or above 30%: COc1cccc(OC)c1S(=O)(=O)Nc1noc2nc(N3CC(OC)C3)cc(OC)c12 [Compound 17]
Resp: rule met

Req: In plain terms: is recorded inhibition at 1 µM at least 30% for COc1ccccc1-c1cc(OC)c2c(NS(=O)(=O)c3c(OC)cccc3OC)noc2n1 [Compound 10] ?
Resp: rule met
